Test: self-splicing fitness, log relative to wild type (ln ratio); higher = more splicing; Tetrahymena group I intron in knt gene, E. coli kanamycin selection, DiMSum; sequences stand for … in CUCUCU…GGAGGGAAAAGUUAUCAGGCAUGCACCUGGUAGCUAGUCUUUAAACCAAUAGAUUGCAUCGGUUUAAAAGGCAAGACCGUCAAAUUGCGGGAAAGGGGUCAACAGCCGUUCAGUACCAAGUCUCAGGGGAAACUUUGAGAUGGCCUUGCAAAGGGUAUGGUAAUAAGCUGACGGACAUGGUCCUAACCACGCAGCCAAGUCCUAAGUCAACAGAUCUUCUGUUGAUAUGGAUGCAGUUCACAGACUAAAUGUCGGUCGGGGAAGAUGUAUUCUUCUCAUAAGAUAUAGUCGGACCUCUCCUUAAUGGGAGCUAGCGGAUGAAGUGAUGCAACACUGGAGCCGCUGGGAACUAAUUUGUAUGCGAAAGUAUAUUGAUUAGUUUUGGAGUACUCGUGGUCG;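 further: selection with 25 µg/mL kanamycin versus none on LB agar overnight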
Conditions: 30 °C
PROPERTY: self-splicing fitness (ln)
// response body must contain only the number

UAUAAGCAAUAUUACGUUAG    -2.08
GUUUAGCAAUAUUACGUCAU    -0.998
CAACAGCAAUAUUACGGGUC    -4.17
GCAUAGCAAUAUUACGGAUA    -1.81
GGGGAGCAAUAUUACGGCAU    -1.9
UCCAAGCAAUAUUACGUAAA    -1.12
CGAGAGCAAUAUUACGCGAA    -2.39

--- query ---
Task: Check the records and state self-splicing fitness (ln) for AGUAAGCAAUAUUACGCUAC
Result: -0.918

----------
Test: self-splicing fitness, log relative to wild type (ln ratio); higher = more splicing; Tetrahymena group I intron in knt gene, E. coli kanamycin selection, DiMSum; sequences stand for … in CUCUCU…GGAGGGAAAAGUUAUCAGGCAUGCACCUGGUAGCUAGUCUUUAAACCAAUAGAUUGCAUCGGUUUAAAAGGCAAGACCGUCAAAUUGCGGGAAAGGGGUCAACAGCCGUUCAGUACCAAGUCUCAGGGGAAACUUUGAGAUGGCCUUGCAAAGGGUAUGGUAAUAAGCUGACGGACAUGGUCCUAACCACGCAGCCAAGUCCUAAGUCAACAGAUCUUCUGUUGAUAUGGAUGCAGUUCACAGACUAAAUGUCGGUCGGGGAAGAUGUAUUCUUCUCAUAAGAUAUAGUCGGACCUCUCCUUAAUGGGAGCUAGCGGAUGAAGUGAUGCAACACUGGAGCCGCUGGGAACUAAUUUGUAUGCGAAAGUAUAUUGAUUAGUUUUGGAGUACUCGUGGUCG
Details: 30 °C
PROPERTY: self-splicing fitness (ln)
// response body must contain only the number

UAUCAGCAAUAUUACGCAAU    -1.96
AAUUAGCAAUAUUACGGCUC    -0.532
UAACAGCAAUAUUACGCUCA    -0.26
GGCAAGCAAUAUUACGUUGU    -3.52
AACAAGCAAUAUUACGGAAC    -3.32
AGAGAGCAAUAUUACGAACC    -2.98

Task: Check the records and state self-splicing fitness (ln) for GGGUAGCAAUAUUACGGGGU
Result: -3.33

----------
Experiment: self-splicing fitness, log relative to wild type (ln ratio); higher = more splicing; Tetrahymena group I intron in knt gene, E. coli kanamycin selection, DiMSum; sequences stand for … in CUCUCU…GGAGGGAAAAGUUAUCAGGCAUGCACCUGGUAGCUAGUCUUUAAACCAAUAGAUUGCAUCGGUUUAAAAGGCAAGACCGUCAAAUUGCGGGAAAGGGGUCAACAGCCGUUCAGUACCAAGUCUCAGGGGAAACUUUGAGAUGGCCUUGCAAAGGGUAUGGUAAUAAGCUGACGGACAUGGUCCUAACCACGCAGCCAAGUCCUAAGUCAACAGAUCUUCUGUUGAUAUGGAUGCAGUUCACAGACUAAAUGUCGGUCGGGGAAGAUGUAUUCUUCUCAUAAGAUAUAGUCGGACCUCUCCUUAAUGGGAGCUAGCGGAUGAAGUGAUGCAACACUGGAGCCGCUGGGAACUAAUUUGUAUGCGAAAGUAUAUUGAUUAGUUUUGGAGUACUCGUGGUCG
Conditions: 37 °C
Reported self-splicing fitness (ln) by item:
// response body must contain only the number

UGAUAGCAAUAUUACGGGCG    0.157
CCGAAGCAAUAUUACGUAUG    0.0157
CAACAGCAAUAUUACGUCUC    -0.669
CGUCAGCAAUAUUACGAUGG    -0.0354
CGGCAGCAAUAUUACGUAUC    -2.86
GGCCAGCAAUAUUACGCUAU    -1.02
GCCGAGCAAUAUUACGUCGC    -1.88

--- query ---
Task: Check the records and state self-splicing fitness (ln) for AUGCAGCAAUAUUACGGGUC
Result: -1.61
